Assay: AUC (0 to t) in Sprague-Dawley rat at 5 mg/kg, po
Format: ADME, organism-based
Parameters: dose 5 mg/kg, route oral
Conditions: plasma
ASSAY READOUT: AUC(0-t) (ng·h/mL)

> print(dat)
                         chemical.structure  recorded.value
1  COC(=O)N1CCC(CN2CCC(CNC(=O)c3cccc4[nH]c(C(C)C)nc34)CC2)CC1            1240

* * *

Molecular target: 5-hydroxytryptamine receptor 2A (Homo sapiens)
Sequence (P28223 whole entry): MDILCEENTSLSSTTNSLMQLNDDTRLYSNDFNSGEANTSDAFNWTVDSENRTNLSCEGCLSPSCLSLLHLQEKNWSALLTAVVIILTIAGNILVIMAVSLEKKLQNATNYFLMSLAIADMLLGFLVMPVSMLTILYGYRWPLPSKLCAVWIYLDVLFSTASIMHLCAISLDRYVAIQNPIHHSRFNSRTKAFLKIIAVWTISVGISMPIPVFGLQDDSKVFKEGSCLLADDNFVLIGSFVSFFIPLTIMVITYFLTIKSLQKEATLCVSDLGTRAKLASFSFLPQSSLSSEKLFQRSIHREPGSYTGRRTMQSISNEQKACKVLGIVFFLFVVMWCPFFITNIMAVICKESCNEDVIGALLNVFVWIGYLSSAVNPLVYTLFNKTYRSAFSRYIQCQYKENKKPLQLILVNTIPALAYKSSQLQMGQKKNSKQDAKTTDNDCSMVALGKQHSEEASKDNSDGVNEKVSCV
pKi: −log10 of the molar value.
ASSAY READOUT: pKi

> print(dat)
                                   compound  assay.readout  recorded.value
1  CCCCCNC(=N)N/N=C/c1c[nH]c2ccc(OC)cc12 [TEGASEROD]            pKi          > 7.00

* * *

Assay: Half life in rat liver micrososmes
Format: ADME, Microsome
Conditions: liver microsomes
Form field: half-life (one value per entry).
ASSAY READOUT: half-life

> print(dat)
                                   compound  recorded.value
1  COC(=O)N1CCC(CN2CCC(CNC(=O)c3cccc4[nH]c(C(C)C)nc34)CC2)CC1          1.43 h
2  CC(=O)N1CCC(CN2CCC(CNC(=O)c3cccc4[nH]c(C(C)C)nc34)CC2)CC1         > 1.5 h
3  CC(=O)N1CCN(CCN2CCC(CNC(=O)c3cccc4nc(C(C)C)[nH]c34)CC2)CC1         > 1.5 h
4  CCCCCNC(=N)N/N=C/c1c[nH]c2ccc(OC)cc12 [TEGASEROD]         > 1.5 h
5  CC(C)c1nc2cccc(C(=O)NCC3CCN(CC(O)CN(C)S(C)(=O)=O)CC3)c2[nH]1 (stereo unspecified)         > 1.5 h
6  COC(=O)N1CCN(CCN2CCC(CNC(=O)c3cccc4[nH]c(C(C)C)nc34)CC2)CC1         > 1.5 h

* * *

Target: 5-hydroxytryptamine receptor 4 (Homo sapiens, UniProt Q13639)
Sequence (Q13639 whole entry): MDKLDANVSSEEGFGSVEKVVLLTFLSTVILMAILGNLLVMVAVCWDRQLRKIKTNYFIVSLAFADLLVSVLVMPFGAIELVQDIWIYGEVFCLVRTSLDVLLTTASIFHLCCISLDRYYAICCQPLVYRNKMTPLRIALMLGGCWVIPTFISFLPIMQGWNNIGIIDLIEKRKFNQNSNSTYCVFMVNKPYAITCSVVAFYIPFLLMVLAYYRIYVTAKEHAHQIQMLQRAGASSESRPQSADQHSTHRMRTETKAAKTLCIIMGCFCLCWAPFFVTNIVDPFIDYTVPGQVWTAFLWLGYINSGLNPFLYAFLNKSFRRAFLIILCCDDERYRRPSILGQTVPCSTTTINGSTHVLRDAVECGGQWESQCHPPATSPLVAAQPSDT
Experiment: Binding affinity to human recombinant 5HT4 receptor
ASSAY READOUT: Ki (nM)

> print(dat)
                                   compound  assay.readout  recorded.value
1  CC(C)c1nc2c(C(=O)NCC3CCN(CC(O)CN4CCN(S(C)(=O)=O)CC4)CC3)cc(Cl)cc2[nH]1 (stereo not drawn)             Ki           0.316
2  CC(C)c1nc2cccc(C(=O)NCC3CCN(CC(O)CN(C)S(C)(=O)=O)CC3)c2[nH]1 (stereo not drawn)             Ki            1.26
3  CS(=O)(=O)N1CCN(CC(O)CN2CCC(CNC(=O)c3cccc4[nH]c(-c5ccccc5)nc34)CC2)CC1 (stereo not drawn)             Ki            1.26
4  CS(=O)(=O)N1CCN(CC(O)CN2CCC(CNC(=O)c3cccc4[nH]c(C5CC5)nc34)CC2)CC1 (stereo not drawn)             Ki           0.501
5  CS(=O)(=O)N1CCN(CC(O)CN2CCC(CNC(=O)c3cccc4nc[nH]c34)CC2)CC1 (stereo not drawn)             Ki            6.31
6  CC(C)c1nc2c(C(=O)NCC3CCN(CC4CCN(S(C)(=O)=O)CC4)CC3)cccc2[nH]1             Ki           0.501
7  CCc1nc2c(C(=O)NCC3CCN(CC(O)CN4CCN(S(C)(=O)=O)CC4)CC3)cccc2[nH]1 (stereo not drawn)             Ki           0.501
8  CC(F)(F)c1nc2cccc(C(=O)NCC3CCN(CC(O)CN4CCN(S(C)(=O)=O)CC4)CC3)c2[nH]1 (stereo not drawn)             Ki               2
